Kindly state inhibition for each of the entries shown.
Target: Glucose transporter (Leishmania mexicana)
Assay: ST_JUDE_LEISH: Cytotoxicity at 2uM final concentration against transgenic Leishmania Mexicana promastigotes LmGT2 that are glucose transport deficient and complemented with the L. Mexicana glucose transporter 2. Activity is measured by DNA content using SYBR green in vitro
Assay type: functional
Numbers only, in %.

Report inhibition for each item below.
1. Nc1nc(N)c2c(ccc3nn(Cc4cccnc4)cc32)n1
2. CN(C)CCC1CCN(CCS(=O)(=O)c2cccc(Nc3ccc(-c4cccc(F)c4)cn3)c2)CC1
3. Cc1c2ccncc2c(C)c2c1[nH]c1cc(Cc3ccccc3)c(O)cc12
4. O=C(Nc1ccc(C(F)(F)F)cc1)c1ccc(S(=O)(=O)NCC2CCCN(CC3CCCCC3)C2)cc1 (stereo unspecified)
5. c1ccc(Oc2ccc(Nc3ccnc(Nc4ccc(OCCN5CCCCC5)cc4)n3)cc2)cc1
6. CCOC(=O)c1ccc(-n2c(C)cc(C=C3SC(=Nc4ccccc4)N(C4CCCC4)C3=O)c2C)cc1

[4.81, 3.78, -3.09, 1.65, 18.4, 4.67]

====

Biological target: Hexose transporter 1 (Plasmodium falciparum)
Assay: ST_JUDE_LEISH: Cytotoxicity at 2uM final concentration against transgenic Leishmania Mexicana promastigotes LmPfHT that are glucose transport deficient and complemented with the Plasmodium falciparum hexose transporter. Activity is measured by DNA content using SYBR green in vitro
Format: functional
Each entry gets NOT MET if its inhibition stays under 3%, and MET if its inhibition is 3% or above.

The examples below pair each entry with its known result.
* CC(Oc1c(C2CCN(CCCCNC(=O)c3ccc(-c4ccc(C#N)cc4)cc3)CC2)ccc2c1CCCC2)C(N)=O (centres undefined) | NOT MET
* CC(C)(C)c1ccc(CN2CCC(CNC(=O)c3cc(-c4cccc(Cl)c4)cs3)C2)cc1 (centres undefined) | MET
* Cc1cccc2nc(-c3cccc(-c4cccc(NC(=O)c5ccoc5)c4)c3)[nH]c12 | MET

Entry O=C(c1ccccc1[N+](=O)[O-])N(Cc1ccccc1)c1ccccn1 : is its inhibition no less than 3%?
MET

Please do the same for CCc1cc(-c2onc(C(F)(F)F)c2-c2ccccc2)c(O)cc1OC as well.
MET

Please do the same for COc1cccc(C(=O)NCc2cccs2)c1OCc1ccccc1 as well.
NOT MET

====

Kindly state inhibition for each of the entries shown.
Biological target: Solute carrier family 2, facilitated glucose transporter member 1 (Homo sapiens) (UniProt P11166)
Sequence (P11166 whole entry): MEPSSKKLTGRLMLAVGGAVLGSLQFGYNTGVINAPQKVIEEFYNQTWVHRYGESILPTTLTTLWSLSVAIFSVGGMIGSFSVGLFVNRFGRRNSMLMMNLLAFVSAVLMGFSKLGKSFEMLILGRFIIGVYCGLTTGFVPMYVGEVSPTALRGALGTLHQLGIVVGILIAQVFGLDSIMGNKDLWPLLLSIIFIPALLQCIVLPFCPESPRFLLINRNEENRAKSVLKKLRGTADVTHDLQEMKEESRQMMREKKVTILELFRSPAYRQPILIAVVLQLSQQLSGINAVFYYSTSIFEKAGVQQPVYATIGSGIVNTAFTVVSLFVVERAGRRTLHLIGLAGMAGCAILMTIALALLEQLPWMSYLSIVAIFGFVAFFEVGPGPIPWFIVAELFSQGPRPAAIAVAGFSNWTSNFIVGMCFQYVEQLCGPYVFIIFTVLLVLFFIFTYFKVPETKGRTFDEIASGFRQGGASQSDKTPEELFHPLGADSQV
Assay: ST_JUDE_LEISH: Cytotoxicity at 2uM final concentration against transgenic Leishmania Mexicana promastigotes LmGLUT1 that are glucose transport deficient and complemented with the human glucose transporter GLUT1. Activity is measured by DNA content using SYBR green in vitro
Format: functional
Answers are plain numbers, in %.

Use these answered entries as a reference point.
* CCc1c(C(=O)NC2CCC(N3CCC(c4ccccc4C)CC3)CC2)[nH]c2ccc(OC)cc12 (centres undefined) | 0.2
* Cc1cnccc1/C=C/c1cccc(OCCCN2CCc3ccc(S(C)(=O)=O)cc3CC2)c1 | 2.21
* N=c1n(CCN2CCCCC2)c2ccccc2n1CC(O)c1cccc(Br)c1 (centres undefined) | 3.65
* Fc1cccc(COc2ccc(Nc3ncnc4sc(C#C[C@H]5CC[C@H](CN6CCOCC6)N5)cc34)cc2Cl)c1 | 0.36
* FC(F)(F)c1ccc(-c2cncc(-c3ccc(C(F)(F)F)cc3)n2)cc1 | -1.94
* CC(=O)c1ccc(-c2ccc(C(=O)NCCCCN3CCC(c4ccc5c(c4O)CCCC5)CC3)cc2)cc1 | 3.01

Report inhibition for each item below.
1. Cc1oc(-c2ccc(Cl)cc2)cc1C(=O)NCCC1CCN(CCCCCNC(=O)/C=C/c2ccc(Cl)c(Cl)c2)CC1
2. CC(C)(C)c1ccc(OCCCON2C(=N)N=C(N)NC2(C)C)c(C(C)(C)C)c1
3. CNc1cc(-c2ccc3ccnc(N)c3c2)nc(N)n1
4. NC(=O)c1cccc(Nc2nccc(Nc3ccc(Oc4c(Cl)cccc4Cl)c(Cl)c3)n2)c1
5. COc1ccc(Cc2nc(/N=C(\N)Nc3ccccc3)ccc2OC)cc1

[-0.57, 1.15, -1.76, 9.27, 0.38]

Report inhibition for each item below.
1. COc1ccccc1CCCON1C(=N)N=C(N)NC1(C)C
2. COc1cc(-n2c(CN3CCCC3)nc3cc(-c4ccc(Cl)cc4)sc3c2=O)ccc1OCCN1CCCC1
3. COc1ccc(-c2ccc(NC(=O)c3cccc(Cl)c3)cc2)cc1CN1CCCC1
4. O=C(NCCc1ccccc1)N(Cc1ccccc1-c1cccc(CNC2CCCC2)c1)C1CCN(Cc2ccccc2)CC1

5.24
2.99
11.7
8.2

Report inhibition for each item below.
1. O=C(/C=C/c1ccc(Cl)c(Cl)c1)N1CCC(CCN2CCC(c3nc4cc(O)ccc4[nH]3)CC2)CC1
2. Cc1ccc(NC(=O)c2ccc(-c3cc4cc(Cl)c(Cl)cc4[nH]3)cc2)cc1OCCN1CCCC1
3. C=CC[C@H](C[C@H](O)[C@H](Cc1ccccc1)NC(=O)c1ccc(-c2cccnn2)cc1)C(=O)NC1CCCCC1
4. OC(CNc1cccc(Cl)c1)Cn1c2ccc(Cl)cc2c2cc(Cl)ccc21 (centres undefined)
5. COc1cc2cc(Cc3cnc(N)nc3N)ccc2c(OC)c1OC
6. O=C(NC(=O)c1ccccc1O)c1ccccc1O
7. Cc1c(Cn2ncc(N3CC(C)NC(C)C3)c(Cl)c2=O)cccc1NC(=O)Nc1ccc(-c2ccccc2)cc1 (centres undefined)
8. N=C(N)NC(=O)Nc1cc(F)c(Cl)c(Br)c1

1. 1.92
2. -0.06
3. -1.55
4. 3.75
5. 0.96
6. -0.08
7. 4.08
8. 3.49

Returns the measured inhibition for the input molecule. Input: Nc1nc(N)c2c(Oc3cccnc3)cccc2n1
0.1

====

Target: Glucose transporter (Leishmania mexicana) (UniProt O61059)
Assay: ST_JUDE_LEISH: Cytotoxicity at 2uM final concentration against transgenic Leishmania Mexicana promastigotes LmGT2 that are glucose transport deficient and complemented with the L. Mexicana glucose transporter 2. Activity is measured by DNA content using SYBR green in vitro
Type: functional
Kindly state inhibition for each of the entries shown.
Write your answer as a measured quantity: the number, then the unit.

Use these answered entries as a reference point.
• CC(C)(C)OC(=O)N1CCC(C2CCN(C(=O)OC(C)(C)C)CC2)CC1 = -1.48%
• Cn1c(-c2ccccc2)cc2c3c(=O)cc(C(F)(F)F)[nH]c3ccc21 = 14.1%

Report inhibition for each item below.
1. CCCc1ccccc1OCC(O)CN(C1CCCC1)C1CCCC1 (stereo not drawn)
2. CN1CCC(N(Cc2ccc(-c3ccc(C(F)(F)F)cc3)nc2)C(=O)Cn2c(CCc3cccc(F)c3F)cc(=O)c3ccccc32)CC1

["5.96%", "7.68%"]

Report inhibition for each item below.
1. Oc1ccc(-c2cc(-c3ccc(O)cc3)nc(-c3ccccc3)n2)cc1
2. COc1cccc(CN2CCCC(COC(c3ccc(F)cc3)c3ccc(F)cc3)C2)c1O (stereo not drawn)
3. O=C(Nc1nc(-c2ccccn2)cs1)c1ccccc1COc1ccccc1
4. O=C(Nc1ccc(CN2CCOCC2)cc1)c1ccc(-c2cc(Cl)ccc2Cl)o1

1: 0.82%; 2: -0.91%; 3: -1.57%; 4: 7.99%

====

Kindly state inhibition for each of the entries shown.
Target: Solute carrier family 2, facilitated glucose transporter member 1 (Homo sapiens)
Assay: ST_JUDE_LEISH: Cytotoxicity at 2uM final concentration against transgenic Leishmania Mexicana promastigotes LmGLUT1 that are glucose transport deficient and complemented with the human glucose transporter GLUT1. Activity is measured by DNA content using SYBR green in vitro
Type: functional
Answers are plain numbers, in %.

Use these answered entries as a reference point.
• CN(C)CCCc1cc(NC(=O)Nc2cccc(Cl)c2Cl)ccc1I = 1.65
• CCCCCCCN(CCCCCCC)CCCC(=O)Nc1ccnc2ccc(OC)cc12 = 1.2
• Cc1cccc2c(CON3C(N)=NC(N)=NC3(C)C)cccc12 = 0.73
• CCNc1cc(C(=O)N[C@@H](Cc2ccccc2)[C@H](O)CNC2(C(C)C)CCC2)cc(N2CCCCS2(=O)=O)c1 = -0.22

Report inhibition for each item below.
1. O=C(Nc1ccc(-c2ccc(-c3nc4ccccc4[nH]3)cc2)cc1)Nc1ccc(Cl)c(Cl)c1
2. Cc1nc2nc(N)nc(N)c2c(C)c1Cc1c(Cl)cccc1Cl

3.78
8.8

====

Target: Hexose transporter 1 (Plasmodium falciparum) (UniProt O97467)
Assay: ST_JUDE_LEISH: Cytotoxicity at 2uM final concentration against transgenic Leishmania Mexicana promastigotes LmPfHT that are glucose transport deficient and complemented with the Plasmodium falciparum hexose transporter. Activity is measured by DNA content using SYBR green in vitro
Assay type: functional
property_name: inhibition (%)
Answers are plain numbers, in %.

Use these answered entries as a reference point.
- CC1=C(C(=O)Nc2cc3cn[nH]c3cc2F)C(c2cccc(NS(C)(=O)=O)c2)CC(=O)N1 (stereo not drawn): 1.97
- COc1ccc(F)cc1-c1ccc(C(=O)N2CCCN(c3ccc(C(F)(F)F)cn3)CC2)cc1: 1.75

Returns the measured inhibition for the input molecule. Input: O=C(Nc1ccccc1Br)N[C@@H]1CCN(c2ccnc3ccccc23)C1
5.95
